Where do the numbers come from? From paper PMC5339710.

Target: T1, WRN helicase core (WRN512-1213) (Gallus gallus, UniProt D3KR65 512-1213)
T1 sequence: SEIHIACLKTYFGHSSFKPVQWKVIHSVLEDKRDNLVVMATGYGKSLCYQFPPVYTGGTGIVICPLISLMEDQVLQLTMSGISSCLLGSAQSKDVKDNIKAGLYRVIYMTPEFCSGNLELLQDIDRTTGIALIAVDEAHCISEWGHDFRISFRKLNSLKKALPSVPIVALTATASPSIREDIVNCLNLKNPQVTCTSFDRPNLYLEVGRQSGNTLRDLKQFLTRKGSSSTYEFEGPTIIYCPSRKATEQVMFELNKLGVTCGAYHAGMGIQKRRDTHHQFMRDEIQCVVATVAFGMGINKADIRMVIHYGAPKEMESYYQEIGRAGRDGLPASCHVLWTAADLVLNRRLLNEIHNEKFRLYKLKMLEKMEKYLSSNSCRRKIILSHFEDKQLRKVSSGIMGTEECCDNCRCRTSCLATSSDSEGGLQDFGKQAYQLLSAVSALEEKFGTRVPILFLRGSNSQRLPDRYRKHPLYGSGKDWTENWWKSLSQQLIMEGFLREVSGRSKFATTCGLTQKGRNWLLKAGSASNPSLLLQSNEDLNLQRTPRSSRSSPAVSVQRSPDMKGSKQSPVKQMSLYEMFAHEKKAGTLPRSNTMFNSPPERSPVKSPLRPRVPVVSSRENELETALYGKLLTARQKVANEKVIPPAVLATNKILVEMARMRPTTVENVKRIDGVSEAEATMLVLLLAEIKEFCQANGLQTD
Assay: fluorescence polarization anisotropy; 0.2 mM ATPgS; 5 mM Mg2+; Hill coefficient 1; 20 mM Tris-HCl pH 8.0, 50 mM KCl, 5 mM MgCl2, 5 nM DNA, 25 C, 5 min equilibration
Details: protein: recombinant; tags: 6xHis-SUMO at N-terminus, cleaved with Ulp; label: fluorescein (FAM), position by colour only; single strand
Readout Name: Kd
// unit must come after the numeric part

Which Kd is reported for this binder? CTCTGCTCGACGGATT (ssDNA) [16nt-FAM]
76.6 nM
